Origin of the recorded values: patent US20250205193A1

ASSAY_PROTOCOL: in vivo
CONDITION_NOTES: male, mouse, iv
MEASURED_ATTRIBUTE: half-life (h)
Respond with the bare value in h.

What value of half-life has been reported for the following molecule? CN(Cc1ccc(C(F)(F)F)cc1)c1ccc2cc(C(=O)O)c(=O)oc2c1 [MN-D7] 3.65

* * *

ASSAY_PROTOCOL: in vivo
CONDITION_NOTES: male, mouse, iv, 1 mg/kg
MEASURED_ATTRIBUTE: MRT inf (h)
The reply should contain only the number, in h.

I am curious: what MRT inf value has been reported for `CN(Cc1ccc(C(F)(F)F)cc1)c1ccc2cc(C(=O)O)c(=O)oc2c1` ? 4.97

* * *

ASSAY_PROTOCOL: in vivo
CONDITION_NOTES: female, mouse, po, 5 mg/kg
MEASURED_ATTRIBUTE: Tmax (min)
API: value field is a number in min; no unit string.

Recorded Tmax for CN(Cc1ccc(C(F)(F)F)cc1)c1ccc2cc(C(=O)O)c(=O)oc2c1 [MN-D7] , please? 4.8

* * *

ASSAY_PROTOCOL: in vivo
CONDITION_NOTES: female, mouse, po
MEASURED_ATTRIBUTE: bioavailability

Which bioavailability value belongs to `CN(Cc1ccc(C(F)(F)F)cc1)c1ccc2cc(C(=O)O)c(=O)oc2c1` ? ~124%

* * *

ASSAY_PROTOCOL: in vivo
CONDITION_NOTES: female, mouse, po, 5 mg/kg
MEASURED_ATTRIBUTE: MRT last (h)
State just the number; it will be interpreted in h.

# input molecule: `CN(Cc1ccc(C(F)(F)F)cc1)c1ccc2cc(C(=O)O)c(=O)oc2c1` ; wanted: its MRT last 3.88

* * *

ASSAY_PROTOCOL: in vivo
CONDITION_NOTES: male, mouse, iv, 1 mg/kg
MEASURED_ATTRIBUTE: Cmax (ng/mL)
Write the number in ng/mL without appending the unit.

Given the entry CN(Cc1ccc(C(F)(F)F)cc1)c1ccc2cc(C(=O)O)c(=O)oc2c1 [MN-D7] , report its measured Cmax. 160

* * *

ASSAY_PROTOCOL: in vivo
CONDITION_NOTES: female, mouse, iv, 1 mg/kg
MEASURED_ATTRIBUTE: MRT inf (h)
# unit: h | format: bare number

Value lookup for MRT inf; key = `CN(Cc1ccc(C(F)(F)F)cc1)c1ccc2cc(C(=O)O)c(=O)oc2c1` 4.34

* * *

ASSAY_PROTOCOL: in vivo
CONDITION_NOTES: female, mouse, iv, 1 mg/kg
MEASURED_ATTRIBUTE: clearance (mL/min/kg)
// return numeric value only (unit: mL/min/kg, not printed)

Could you tell me which clearance is on file for `CN(Cc1ccc(C(F)(F)F)cc1)c1ccc2cc(C(=O)O)c(=O)oc2c1` ? 26.6

* * *

ASSAY_PROTOCOL: in vivo
CONDITION_NOTES: female, mouse, po, 5 mg/kg
MEASURED_ATTRIBUTE: MRT inf (h)
// units = h; emit number, no label

Can you look up the measured MRT inf of `CN(Cc1ccc(C(F)(F)F)cc1)c1ccc2cc(C(=O)O)c(=O)oc2c1` for me? 4.39

* * *

ASSAY_PROTOCOL: in vivo
CONDITION_NOTES: female, mouse, iv, 1 mg/kg
MEASURED_ATTRIBUTE: C0

Request the reported C0 associated with CN(Cc1ccc(C(F)(F)F)cc1)c1ccc2cc(C(=O)O)c(=O)oc2c1 [MN-D7] 226 ng/mL
